Tested on: 556581-035-R-J1-PDC complex spheroid growth
Test: Anticancer human tumor 556581-035-R-J1-PDC patient-derived ovarian carcinoma cell line growth inhibition [Asc]
Details: curve of first compound; second compound 0.0316 µM
Text: Multicellular complex tumor spheroid response to apoptosis pathway targeting inhibitors Alrizomadlin, Pelcitoclax, and Dasminapant in combination with a variety of drugs and investigational agents in selected tumor cell lines […] Compounds. […] If the clinical Cmax for an agent had not been determined, the highest concentration tested was 10 microM. […]
pIC50: −log10 of the molar value.
MEASUREMENT KIND: pIC50

Fill in: pIC50 of C#Cc1c(F)ccc2cc(O)cc(-c3ncc4c(N5CC6CCC(C5)N6)nc(OCC56CCCN5CC(F)C6)nc4c3F)c12 (configuration not stated) + CNC(C)C(=O)NC1CN(S(=O)(=O)c2cccc(S(=O)(=O)N3CCC4CCC(C(=O)NC(c5ccccc5)c5ccccc5)N4C(=O)C(NC(=O)C(C)NC)C3)c2)CCC2CCC(C(=O)NC(c3ccccc3)c3ccccc3)N2C1=O is ___
< 5.00

And then NC1CCC(NC2CC2c2ccccc2)CC1 (configuration not stated) + CNC(C)C(=O)NC1CN(S(=O)(=O)c2cccc(S(=O)(=O)N3CCC4CCC(C(=O)NC(c5ccccc5)c5ccccc5)N4C(=O)C(NC(=O)C(C)NC)C3)c2)CCC2CCC(C(=O)NC(c3ccccc3)c3ccccc3)N2C1=O , what is it?
< 7.00

----------
Test system: 556581-035-R-J1-PDC complex spheroid growth
Assay: Anticancer human tumor 556581-035-R-J1-PDC cell line growth inhibition [Asc];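 note: spheroids exposed to agents for 7 days before viability read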
Conditions: second compound 0.3 µM; first compound 1 µM; stronger effect = lower value
MEASUREMENT KIND: viability, T/C (%)
Write the number in % without appending the unit.

Fill in: viability, T/C of C=CC(=O)N1CCN(c2nc(=O)n(-c3c(C)ccnc3C(C)C)c3nc(-c4c(O)cccc4F)c(F)cc23)C(C)C1 (configuration not stated) + CCN1C(C(=O)NC23CCC(C(=O)O)(CC2)CC3)C(c2cccc(Cl)c2F)C2(C(=O)Nc3cc(Cl)ccc32)C12CCCCC2 is ___
86.6

And then CNC(C)C(=O)NC1CN(S(=O)(=O)c2cccc(S(=O)(=O)N3CCC4CCC(C(=O)NC(c5ccccc5)c5ccccc5)N4C(=O)C(NC(=O)C(C)NC)C3)c2)CCC2CCC(C(=O)NC(c3ccccc3)c3ccccc3)N2C1=O (configuration not stated) + CCN1C(C(=O)NC23CCC(C(=O)O)(CC2)CC3)C(c2cccc(Cl)c2F)C2(C(=O)Nc3cc(Cl)ccc32)C12CCCCC2 , what is it?
57.1

----------
Tested on: 556581-035-R-J1-PDC complex spheroid growth
Experiment: Anticancer human tumor 556581-035-R-J1-PDC cell line growth inhibition [Asc];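 note: spheroids exposed to agents for 7 days before viability read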
Conditions: second compound 0.316 µM; first compound 0.1 µM; stronger effect = lower value
MEASUREMENT KIND: viability, T/C

Fill in: viability, T/C of COc1c(OCCCN2CCOCC2)ccc2c3n(c(=NC(=O)c4cnc(N)nc4)nc12)CCN3 + Cc1c(S(C)(=O)=O)c(-c2cc(F)cc(N3CCN(c4ccc(NS(=O)(=O)c5ccc(NC(CCN6CCC(C(=O)OCCCP(=O)(O)O)CC6)CSc6ccccc6)c(S(=O)(=O)C(F)(F)F)c5)cc4)CC3)c2)c(-c2ccc(Cl)cc2)n1C(C)C is ___
47.9%

And then Cn1ncnc1[C@H]1c2n[nH]c(=O)c3cc(F)cc(c23)N[C@@H]1c1ccc(F)cc1 + Cc1c(S(C)(=O)=O)c(-c2cc(F)cc(N3CCN(c4ccc(NS(=O)(=O)c5ccc(NC(CCN6CCC(C(=O)OCCCP(=O)(O)O)CC6)CSc6ccccc6)c(S(=O)(=O)C(F)(F)F)c5)cc4)CC3)c2)c(-c2ccc(Cl)cc2)n1C(C)C , what is it?
84%

And then C=C(F)C(=O)N1CCN(c2nc(OCC3CCCN3C)nc3c2CCN(c2cccc4cccc(Cl)c24)C3)CC1CC#N (stereo not drawn) + Cc1c(S(C)(=O)=O)c(-c2cc(F)cc(N3CCN(c4ccc(NS(=O)(=O)c5ccc(NC(CCN6CCC(C(=O)OCCCP(=O)(O)O)CC6)CSc6ccccc6)c(S(=O)(=O)C(F)(F)F)c5)cc4)CC3)c2)c(-c2ccc(Cl)cc2)n1C(C)C , what is it?
86.7%

Where do the numbers come from? From PubChem BioAssay AID1963450.
